assay: gradient 5% acetonitrile 3 min, to 50% in 2 min, to 85% in 15 min, held 3 min, 100 µL/min; conditions: column: Zorbax Extend-C18 2.1 x 50 mm; eluents: water / acetonitrile, 0.1% formic acid
Field: RP-LC retention time. Provide a value for each of the molecules that follow.
Write the answer as a number in s, unit excluded.

Please list RP-LC retention time recorded for the molecule CCCCN(CC)c1nc(-c2ccc(C)cc2)nc2ccccc12 941

Please list RP-LC retention time recorded for the molecule CCCc1nc2cccnc2n1C1CCN(C(=O)Nc2ccc3c(c2)OCCO3)C1 (centres undefined) 600

Please list RP-LC retention time recorded for the molecule Cc1cccc(Cn2nc3n(CCC(=O)NC(C)C)c(=O)c4ccccc4n3c2=O)c1 851

Please list RP-LC retention time recorded for the molecule CC[C@H](C)C(=O)O[C@H]1CCC=C2C=C[C@H](C)[C@H](CC[C@@H](O)C[C@@H](O)CC(=O)O)[C@H]21 910

Please list RP-LC retention time recorded for the molecule O=C(NCc1ccccc1)c1c(O)c2cccnc2n(-c2ccccc2)c1=O 1160

Please list RP-LC retention time recorded for the molecule CC(C)(C)c1cc(Br)ccc1OCC(=O)Nc1ncn[nH]1 797

Please list RP-LC retention time recorded for the molecule CCc1ccc(C2=C(C)C(N3CCC(NC(=O)NC(C)C)CC3)=NS2(=O)=O)cc1 596

Please list RP-LC retention time recorded for the molecule Cc1cc(=O)n(CC(=O)N2CCc3ccccc32)c(N2CCc3ccccc3C2)n1 825

Please list RP-LC retention time recorded for the molecule CCn1c(=O)c2cc(C(=O)Nc3ccc(C(F)(F)F)cc3)nn2c2ccccc21 1090

Please list RP-LC retention time recorded for the molecule Cc1cc(C)cc(C(=O)NCCc2nc3cccnc3n2C(C)C)c1 744

Please list RP-LC retention time recorded for the molecule CCOc1ccc(NC(=O)c2c(O)c3cccnc3n(-c3cccc(F)c3)c2=O)cc1 1280

Please list RP-LC retention time recorded for the molecule Cc1ccc(C(CNC(=O)c2cc(-c3ccccc3)on2)N(C)C)o1 (centres undefined) 683

Please list RP-LC retention time recorded for the molecule O=C(CSC1CCCC1)NCCCC(=O)Nc1cccc2cccnc12 781

Please list RP-LC retention time recorded for the molecule CCc1nccn1Cc1nc(-c2ccc(Cl)cc2)no1 670

Please list RP-LC retention time recorded for the molecule CC(C)NC(=O)c1ccc(C(C)C)cc1 918

Please list RP-LC retention time recorded for the molecule COc1cc(OC)c2c(=O)cc(-c3cccnc3)oc2c1 733

Please list RP-LC retention time recorded for the molecule CCC(=O)N1CCc2sc(C(=O)NCc3ccc(CC)cc3)cc2C1 824

Please list RP-LC retention time recorded for the molecule CS(=O)(=O)N[C@H]1C[C@@H]2C[C@H]1CN2C(=O)c1cccc(Cl)c1 672

Please list RP-LC retention time recorded for the molecule Cc1cc(-c2nnc(-c3ccc(F)cc3)o2)c(C)n1CC(=O)NCc1ccc(F)cc1 945

Please list RP-LC retention time recorded for the molecule COc1cccc(N2CCN(c3ccnc(SCC(=O)Nc4cc(F)ccc4Cl)n3)CC2)c1 836

Please list RP-LC retention time recorded for the molecule Cc1ccc(-c2noc(-c3ccccc3S(=O)(=O)N3CCN(c4ncccn4)CC3)n2)cc1 1160

Please list RP-LC retention time recorded for the molecule COc1cccc(NC(=O)N2CCC(n3c(-c4ccoc4)nc4cccnc43)C2)c1 (centres undefined) 715

Please list RP-LC retention time recorded for the molecule CCOCCCNC(=O)c1cc2sc(Cl)cc2n1C 939

Please list RP-LC retention time recorded for the molecule O=C(Nc1ccc(F)c(Cl)c1)Nc1nccn(-c2ccc3c(c2)CCC3)c1=O 1180

Please list RP-LC retention time recorded for the molecule Cc1cc(C)c(NC(=O)Cn2cnc3nc(N4CCCC(C(=O)NC5CC5)C4)sc3c2=O)c(C)c1 (centres undefined) 723

Please list RP-LC retention time recorded for the molecule COCCNS(=O)(=O)c1cc2c(cc1C)CCN2C(C)=O 657

Please list RP-LC retention time recorded for the molecule COc1ccc(-c2cn3c(n2)N(C(=O)Cn2ccnc2)CCC3)cc1 593

Please list RP-LC retention time recorded for the molecule Cc1csc(-c2cc(S(=O)(=O)N3CCCC3)cn2CC(=O)N2CCCC2)n1 803

Please list RP-LC retention time recorded for the molecule Cc1cc2nc(C)c(=O)n(CCC(=O)NCCc3c[nH]c4ccc(Cl)cc34)c2cc1C 902

Please list RP-LC retention time recorded for the molecule CCc1cccc(NC(=O)c2cc(C)n3nccc3n2)c1 1030

Please list RP-LC retention time recorded for the molecule O=C(NCCc1ccccc1)N1CCC(c2noc(-c3ccncc3)n2)C1 (centres undefined) 731

Please list RP-LC retention time recorded for the molecule Cc1ccccc1CNC(=O)Cn1c(C)cc(-c2nnc(-c3ccccc3)o2)c1C 957

Please list RP-LC retention time recorded for the molecule CCN(CC)C(=O)c1ccc(-c2nc3cc(NS(=O)(=O)c4cc(C)ccc4C)ccc3n2C)cc1 739

Please list RP-LC retention time recorded for the molecule O=C(O[C@@H]1CN2CCC1CC2)N1CCc2ccccc2C1c1ccccc1 (some centres undefined) 757

Please list RP-LC retention time recorded for the molecule COC(=O)C1=CN(CC(=O)NCc2ccc(OC)cc2)S(=O)(=O)N=C1C 1110

Please list RP-LC retention time recorded for the molecule N#Cc1ccc(C(=O)N2CCN3CCS(=O)(=O)N(C4CC4)C(=O)C3C2)cc1 (centres undefined) 955

Please list RP-LC retention time recorded for the molecule COCCn1cc(C(=O)Nc2ccccc2)c2nn(-c3ccccc3)c(=O)c-2c1 937

Please list RP-LC retention time recorded for the molecule CCOc1cc(=O)c(C(N)=O)nn1-c1ccc(F)cc1 622

Please list RP-LC retention time recorded for the molecule CCn1ccc2sc(C)c(C(=O)NC3CCCCCC3)c2c1=O 894
